- system.under.test: cathepsin B (Homo sapiens, UniProt P07858)
- assay: recombinant enzyme, fluorogenic substrate Cbz-RR-AMC, Morrison plot Ki
readout.label: pKi
One number for each entry, as −log10 of the molar value.

For the compound CS(=O)(=O)C[C@H](N[C@@H](c1ccc(F)cc1)C(F)(F)F)C(=O)NC1(C#N)CC1 [compound 6] , what pKi is on record?
5.71

====

- system.under.test: UniProt O60911
- Sequence (O60911 114-334): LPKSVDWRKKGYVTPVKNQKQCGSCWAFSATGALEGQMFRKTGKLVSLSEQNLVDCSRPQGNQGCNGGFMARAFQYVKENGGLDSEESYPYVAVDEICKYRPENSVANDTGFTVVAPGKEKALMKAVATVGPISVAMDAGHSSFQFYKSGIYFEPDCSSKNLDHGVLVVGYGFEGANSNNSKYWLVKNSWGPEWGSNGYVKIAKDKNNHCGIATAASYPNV
- assay: recombinant enzyme, fluorogenic substrate Cbz-FR-AMC, Morrison plot Ki
readout.label: Ki (nM)
Answers are plain numbers, in nM.

Report Ki for CS(=O)(=O)C[C@H](N[C@@H](c1ccc(F)cc1)C(F)(F)F)C(=O)NC1(C#N)CC1 please.
784

====

- system.under.test: cathepsin L (Homo sapiens, UniProt P07711)
- Sequence (P07711 114-288): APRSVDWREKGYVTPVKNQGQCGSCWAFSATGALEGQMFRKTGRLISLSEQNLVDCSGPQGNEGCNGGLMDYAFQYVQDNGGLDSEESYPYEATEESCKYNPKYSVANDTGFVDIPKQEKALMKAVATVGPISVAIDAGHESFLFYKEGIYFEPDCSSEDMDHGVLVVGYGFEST
- Sequence (P07711 292-333): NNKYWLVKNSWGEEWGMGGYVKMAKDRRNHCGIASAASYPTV
- assay: recombinant enzyme, fluorogenic substrate Cbz-FR-AMC, Morrison plot Ki (limited activity)
readout.label: pKi
Answers are plain numbers, as −log10 of the molar value.

I have this compound here, CS(=O)(=O)C[C@H](N[C@@H](c1ccc(F)cc1)C(F)(F)F)C(=O)NC1(C#N)CC1 [compound 6] , and I need its recorded pKi.
5.10
